Each entry below lists one item and its recorded IC50 value.
tested on: CEM cells HIV-1 protection, formazan growth assay; assay: NCI AIDS Antiviral Assay; conditions: measured here: growth of uninfected CEM cells
Recorded metric: IC50

>  <Mol smiles>
CCSc1nc(C)nc2c1sc1nc3ccccc3n12

>  <Measured>
> 100 µM

$$$$
>  <Mol smiles>
[O-]c1on[n+]2c1Cc1ccccc1C2

>  <Measured>
> 200 µM

$$$$
>  <Mol smiles>
NC1=C(c2ccccc2)C(=O)c2ccccc21

>  <Measured>
> 61.7 µM

$$$$

###

Recorded measurements of pIC50, one per entry
tested on: CEM cells HIV-1 protection, formazan growth assay; assay: NCI AIDS Antiviral Assay; conditions: measured here: growth of uninfected CEM cells
pIC50: −log10 of the molar value.

>  <Compound>
CC(=O)N(CCc1ccccc1)C(C#N)c1ccccc1 (stereo not given)

>  <Study system>
CEM cells HIV-1 protection, formazan growth assay

>  <pIC50>
< 3.70

$$$$
>  <Compound>
O=C(O)c1sccc1Cc1ccsc1

>  <Study system>
CEM cells HIV-1 protection, formazan growth assay

>  <pIC50>
< 3.70

$$$$
>  <Compound>
Cc1c(CCCl)c(N=P(c2ccccc2)(c2ccccc2)c2ccccc2)n2c(nc3ccccc32)c1C#N

>  <Study system>
CEM cells HIV-1 protection, formazan growth assay

>  <pIC50>
< 3.70

$$$$
>  <Compound>
C(=C(c1ccccc1)c1ccccc1)N1CCOCC1

>  <Study system>
CEM cells HIV-1 protection, formazan growth assay

>  <pIC50>
< 3.70

$$$$
>  <Compound>
Cc1cn(CCCCCCOC(=O)NC(CCCN=C(N)N)C(=O)O)c(=O)[nH]c1=O (stereo not given)

>  <Study system>
CEM cells HIV-1 protection, formazan growth assay

>  <pIC50>
< 3.70

$$$$
>  <Compound>
CCN(CC)c1ccc(N=Nc2ccc(-c3nc4cccnc4o3)cc2)cc1

>  <Study system>
CEM cells HIV-1 protection, formazan growth assay

>  <pIC50>
< 4.71

$$$$
>  <Compound>
CC1(C)O[C@H]2OC(CO[Si](C)(C)C(C)(C)C)C(N=[N+]=[N-])[C@H]2O1 (stereo not given in full)

>  <Study system>
CEM cells HIV-1 protection, formazan growth assay

>  <pIC50>
< 4.70

$$$$
>  <Compound>
Cc1ccc(NC(=O)C(=O)C2C(=O)NC(=O)NC2=O)c(C)c1

>  <Study system>
CEM cells HIV-1 protection, formazan growth assay

>  <pIC50>
< 3.08

$$$$
>  <Compound>
COCCN1C(=O)C(NC(C)=O)C1COC(C)(C)C (stereo not given)

>  <Study system>
CEM cells HIV-1 protection, formazan growth assay

>  <pIC50>
< 3.04

$$$$
>  <Compound>
CCCCCC(=O)n1[nH]c(=O)n(-c2ccc(OC)cc2)c1=O

>  <Study system>
CEM cells HIV-1 protection, formazan growth assay

>  <pIC50>
< 3.70

$$$$
>  <Compound>
Nc1nnc2nc(CC(=O)/C=C/c3ccccc3)c(=O)[nH]n12

>  <Study system>
CEM cells HIV-1 protection, formazan growth assay

>  <pIC50>
< 3.77

$$$$
>  <Compound>
Cn1c(=O)[nH]c2[nH]c3ccccc3c2c1=O

>  <Study system>
CEM cells HIV-1 protection, formazan growth assay

>  <pIC50>
< 3.70

$$$$
>  <Compound>
COc1cc(C2C(Cl)C(=O)N2NC(=O)c2ccc(NC(C)=O)cc2)cc(OC)c1OC (stereo not given)

>  <Study system>
CEM cells HIV-1 protection, formazan growth assay

>  <pIC50>
< 3.70

$$$$
>  <Compound>
CCOc1ccc(C2OCCC(C)O2)cc1OC (stereo not given)

>  <Study system>
CEM cells HIV-1 protection, formazan growth assay

>  <pIC50>
< 3.70

$$$$
>  <Compound>
Nc1nc2c(-c3ccc([N+](=O)[O-])cc3)nnn2c2ccccc12

>  <Study system>
CEM cells HIV-1 protection, formazan growth assay

>  <pIC50>
< 5.33

$$$$
>  <Compound>
Clc1cc2cc3c(Br)coc3nc2cc1Cl

>  <Study system>
CEM cells HIV-1 protection, formazan growth assay

>  <pIC50>
< 4.79

$$$$
>  <Compound>
Brc1ccc2[nH]cc(/C=N/N3CCCCCC3)c2c1

>  <Study system>
CEM cells HIV-1 protection, formazan growth assay

>  <pIC50>
< 3.95

$$$$
>  <Compound>
C[N+](C)(C)C.[C-]#[O+].[C-]#[O+].[C-]#[O+].[C-]#[O+].[Cr].c1ccc(N=N[N-]c2ccccc2)cc1

>  <Study system>
CEM cells HIV-1 protection, formazan growth assay

>  <pIC50>
< 5.90

$$$$
>  <Compound>
C=CCn1c(-c2ccc(-c3cs/c(=N\N=O)n3CC=C)cc2)cs/c1=N\N=O

>  <Study system>
CEM cells HIV-1 protection, formazan growth assay

>  <pIC50>
< 4.00

$$$$
>  <Compound>
COC(=O)C(Cc1ccccc1)NS(=O)(=O)c1ccc(-c2c3nc(c(-c4ccc(S(=O)(=O)NC(Cc5ccccc5)C(=O)OC)cc4)c4ccc([nH]4)c(-c4ccc(S(=O)(=O)NC(Cc5ccccc5)C(=O)OC)cc4)c4nc(c(-c5ccc(S(=O)(=O)NC(Cc6ccccc6)C(=O)OC)cc5)c5ccc2[nH]5)C=C4)C=C3)cc1 (stereo not given)

>  <Study system>
CEM cells HIV-1 protection, formazan growth assay

>  <pIC50>
< 3.90

$$$$
